Biological target: SH2D1B (Homo sapiens)
Construct: made in house; host or cells: HEK293 (transient transfection), unpurified extract
Sequence (O14796 1-132): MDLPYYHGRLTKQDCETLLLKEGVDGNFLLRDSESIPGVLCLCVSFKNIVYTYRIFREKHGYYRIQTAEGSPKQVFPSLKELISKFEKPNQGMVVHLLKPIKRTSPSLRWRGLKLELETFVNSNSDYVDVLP
Assay: biochemical
Format: binding
Settings: primary screen, 10 μM; read-out: percent of DMSO vehicle control
remaining activity at 10 µM values for the molecules below.

Example entries and their recorded answers appear below.
> print(dat)
                                  structure  experimental.value
1  C/C(=C\C(=O)N[C@H](C(=O)N1CCC[C@H]1C(=O)N(c1ccccc1)c1ccc(I)cc1)C(C)(C)C)c1ccc(OP(=O)(O)O)cc1               49.6%
2  O=C(COc1ccc2cc(C(=O)Nc3ccccc3)ccc2c1)NCc1ccc(OP(=O)(O)O)c(OP(=O)(O)O)c1               62.9%
3  CC(C)(C)[C@H](NC(=O)/C=C/c1ccc(OP(=O)(O)O)cc1)C(=O)N1CCC[C@H]1C(=O)N(c1ccccc1)c1ccc(I)cc1                 46%

Next molecule, remaining activity at 10 µM to be filled in.
Incoming: Please give the documented remaining activity at 10 µM of O=C(CCl)Nc1cccc(CNC(=O)[C@H](Cc2ccc(OP(=O)(O)O)cc2)NC(=O)Cc2ccc(F)cc2)c1
Outgoing: 63.2%
